The reported numbers originate from PubChem BioAssay (NCI).

# Tested on: A549 NSCLC
# EXPERIMENT: NCI tumour cell line growth inhibition, 48 h
This listing pairs compounds with measured TGI.

{"columns": ["SMILES STR", "TGI"],
 "data": [
  ["O=C(/C=C/c1ccsc1)c1ccsc1", "> 100 µM"],
  ["CC1=C2C(=O)c3ccccc3C2=C(C)S(=O)(=O)O1", "> 10 µM"],
  ["O=c1oc(-c2ccc(O)c(O)c2)cc2cccc(O)c12", "> 100 µM"]
]}

# input for lookup
Exam item: Request the reported TGI associated with CN(C)c1ccc(C=C2N=C(c3ccccc3)N(c3cc(C(=O)c4ccccc4)ccc3N3C(=O)/C(=C/c4ccc(N(C)C)cc4)N=C3c3ccccc3)C2=O)cc1
Marked response: > 100 µM

---

# Tested on: HT29 colon
# EXPERIMENT: NCI tumour cell line growth inhibition, 48 h
This listing pairs molecules with measured TGI.

Exam item: Request the reported TGI associated with CC(=O)N(C(C)=O)C1=C2c3ccccc3N(S(=O)(=O)c3ccccc3)C2n2c(=O)n(-c3ccccc3)c(=O)n2C1 (stereo not drawn)
Marked response: > 100 µM

---

# System: A498 renal
# EXPERIMENT: NCI tumour cell line growth inhibition, 48 h
Where a SMILES comes first, the peptide text is derived from it. The star is where a group is joined. Boc = CC(C)(C)OC(=O)*
PROPERTY MEASURED: TGI

Reference set (5 entries):
{"columns": ["COMPOUND", "TGI"],
 "data": [
  ["CC(=O)[CH-]C(C)=O.[CH2-]C.[CH2-]C.[Tl+3]", "> 100 µM"],
  ["C[C@H](Cn1ncnn1)Nc1ncc2cc(Oc3ccc(F)cc3F)c(=O)n(C)c2n1", "> 25 µM"],
  ["c1ccc(Cn2cnc3ccc(-c4nc(-c5ccc6c(c5)ncn6C5CCCCC5)cn5ccnc45)cc32)cc1", "3.57 µM"],
  ["CC(C)(C)OC(=O)NCC(=O)NCC(=O)NCC(=O)NCC(=O)O (Boc-GGGG-OH)", "> 100 µM"],
  ["CCOc1cc(C2CC(c3ccc(NS(=O)(=O)c4cc([N+](=O)[O-])ccc4C)cc3)=NN2C(=O)c2ccccc2)ccc1O (configuration not stated)", "44.3 µM"]
]}

Exam item: Request the reported TGI associated with COC(=O)c1c2c(cc3c1CC1(C3)Cc3cc4c(c(C(=O)OC)c3C1)CCCC4)CCCC2
Marked response: > 100 µM

Exam item: Request the reported TGI associated with Cc1ccc(S(=O)(=O)N/N=C(\c2nc3ccc([N+](=O)[O-])cc3[nH]c2=O)C(O)c2ccccc2Cl)cc1 (configuration not stated)
Marked response: > 100 µM

Exam item: Request the reported TGI associated with O=C(c1cc2ccccc2cc1O)N1CCCCC1
Marked response: 63.2 µM

Exam item: Request the reported TGI associated with Cc1csc(-c2cn(C)c3c2C(=O)C(N)=CC3=O)n1
Marked response: > 100 µM

Exam item: Request the reported TGI associated with Oc1ccccc1/C=N/c1nc2cc3sc(/N=C/c4ccccc4O)nc3cc2s1
Marked response: > 100 µM

Exam item: Request the reported TGI associated with CSc1c(C)c(C)nn1-c1ccccc1
Marked response: > 100 µM

Exam item: Request the reported TGI associated with Cn1c([N+](=O)[O-])cnc1/C=C1\Oc2cc(Cl)ccc2C1=O
Marked response: 9.97 µM

---

# Tested on: OVCAR-3 ovarian
# EXPERIMENT: NCI tumour cell line growth inhibition, 48 h
This listing pairs compounds with measured TGI.

{"columns": ["COMPOUND", "ASSAYED SYSTEM", "TGI"],
 "data": [
  ["C=CCSc1nc2ccccc2c(=O)n1Cc1ccco1", "OVCAR-3 ovarian", "> 100 µM"],
  ["O=S(=O)(CCOCc1ccc(-c2ccc3ncnc(Nc4ccc(OCc5cccc(F)c5)c(Cl)c4)c3c2)o1)c1ccccc1", "OVCAR-3 ovarian", "> 25 µM"],
  ["CN(C)c1nc(=NCc2ccccc2)ss1", "OVCAR-3 ovarian", "> 10 µM"],
  ["CCOC(=O)c1c(-c2ccc(OC)cc2)c(C#N)c(=S)n(C2OC(COC(C)=O)C(OC(C)=O)C(OC(C)=O)C2OC(C)=O)c1C (stereo unspecified)", "OVCAR-3 ovarian", "> 100 µM"]
]}

Exam item: Please tell me: TGI of CCN(CC)CCOc1ccc(N2C(=O)c3cc(OC)c(OC)cc3C2=O)cc1 , system OVCAR-3 ovarian?
Marked response: > 100 µM

Exam item: Please tell me: TGI of C=CCn1c(=O)ccn(COCCO)c1=O , system OVCAR-3 ovarian?
Marked response: > 100 µM

---

# System: SF-295 CNS
# EXPERIMENT: NCI tumour cell line growth inhibition, 48 h
PROPERTY MEASURED: TGI

Reference set (5 entries):
{"columns": ["COMPOUND", "TGI"],
 "data": [
  ["CC/C(=N\\NS(=O)(=O)c1ccccc1)c1ccccc1", "> 100 µM"],
  ["N#CCCN(CCC#N)c1ccc(/C=C2\\N=C(c3ccccc3)N(c3ccc(Cl)cc3)C2=O)cc1", "> 100 µM"],
  ["NC(=O)/C=C/C(=O)O", "> 5000 µM"],
  ["NC(=O)C1(N2CCCCC2)CCN(CCCC(=O)c2ccc(F)cc2)CC1", "> 100 µM"],
  ["Cc1ccc(S(=O)(=O)N/N=C(\\c2nc3ccc([N+](=O)[O-])cc3[nH]c2=O)C(O)c2ccccc2Cl)cc1 (stereo unspecified)", "> 100 µM"]
]}

# input for lookup
Exam item: Request the reported TGI associated with CC1(C)N=C(C(N)=O)c2ncn(CCCO)c2N1
Marked response: > 100 µM

---

# Tested on: NCI-H460 lung
# EXPERIMENT: NCI tumour cell line growth inhibition, 48 h
PROPERTY MEASURED: TGI (µM)
The figure you give is taken to be in µM; do not add the unit.

Reference set (3 entries):
{"columns": ["COMPOUND", "ASSAYED SYSTEM", "UNITS LABEL", "TGI"],
 "data": [
  ["O=C(c1ccc2ccccc2c1)c1c(C(F)(F)F)n([O-])c2ccc(Cl)cc2[n+]1=O", "NCI-H460 lung", "µM", 3.34],
  ["Cc1nnc(N/N=C(/C(=O)C(C#N)c2ccccc2)C(C#N)c2ccccc2)n1N (stereo unspecified)", "NCI-H460 lung", "µM", 12.6],
  ["C[C@H]1[C@H](C)CC[C@]2(C(=O)NCCNCCN)CC[C@]3(C)C(=CC[C@@H]4[C@@]5(C)CCC(=O)C(C)(C)[C@@H]5CC[C@]43C)[C@H]12", "NCI-H460 lung", "µM", 3.28]
]}

Exam item: Request the reported TGI associated with COc1ccc2nc3cc(Cl)ccc3c(NCCCNCCCNc3c4ccc(Cl)cc4nc4ccc(OC)cc34)c2c1
Marked response: 0.0131

---

# Tested on: SF-295 CNS
# EXPERIMENT: NCI tumour cell line growth inhibition, 48 h
Where a SMILES comes first, the peptide text is derived from it. The star is where a group is joined. Boc = CC(C)(C)OC(=O)*
This listing pairs molecules with measured TGI.

{"columns": ["MOLECULE", "TGI"],
 "data": [
  ["CC(C)(C)OC(=O)NCC(=O)NCC(=O)NCC(=O)NCC(=O)O (Boc-GGGG-OH)", "> 100 µM"]
]}

Exam item: Request the reported TGI associated with CCOC(=O)NC(=S)NN(C)C1=NCC(C)(C)S1
Marked response: > 100 µM

Exam item: Request the reported TGI associated with O=c1c2ccccc2nc2[nH][nH]c(=S)n12
Marked response: > 100 µM

---

This listing pairs compounds with measured TGI.
# Test system: ACHN renal
# EXPERIMENT: NCI tumour cell line growth inhibition, 48 h

Reference set (2 entries):
{"columns": ["COMPOUND", "ASSAYED SYSTEM", "TGI"],
 "data": [
  ["COc1cc(C2CC(C)(Nc3ccccc3)Oc3cc4c(cc32)OCO4)cc(OC)c1OC (stereo not drawn)", "ACHN renal", "> 90.7 µM"],
  ["CO[C@]12CC(=O)C3(C(C[C@H]4CC5CC=C6C[C@@H](OC(C)=O)CC[C@]6(OC(C)=O)C5C[C@@]43C)C1)C1C[C@H]3[C@@H]4CC=C5C[C@@H](OC(C)=O)CC[C@]5(OC(C)=O)[C@H]4CC[C@]3(C)C12 (stereo partly drawn)", "ACHN renal", "> 100 µM"]
]}

Exam item: Request the reported TGI associated with C=CC[C@]12C[C@@H](C(=O)OC)N(C(=O)OC)[C@H]1N(S(=O)(=O)c1ccccc1)c1ccccc12
Marked response: > 100 µM

---

# Tested on: HCC-2998 colon
# EXPERIMENT: NCI tumour cell line growth inhibition, 48 h
This listing pairs molecules with measured TGI.

Reference set (6 entries):
{"columns": ["MOLECULE", "TGI"],
 "data": [
  ["COc1ccc2cc3c4cc5c(cc4cc[n+]3cc2c1OC)OCO5", "> 55.5 µM"],
  ["Oc1ccccc1/C=N/c1nc2cc3sc(/N=C/c4ccccc4O)nc3cc2s1", "> 100 µM"],
  ["C=CCn1c(=O)ccn(COCCO)c1=O", "> 100 µM"],
  ["CCN(C(=S)N[C@@H](Cc1ccccc1)C(=O)N[C@@H](CC(C)C)C(=O)OC)c1ccccc1", "> 100 µM"],
  ["Cc1csc(-c2cn(C)c3c2C(=O)C(N)=CC3=O)n1", "> 100 µM"],
  ["CC1(C)OC2COC3(CNO)OC(C)(C)OC3C2O1 (stereo unspecified)", "> 100 µM"]
]}

Exam item: Request the reported TGI associated with Cc1cn(C2OC(C)(CO)C(O)C2O)c(=O)[nH]c1=O (stereo unspecified)
Marked response: > 100 µM

Exam item: Request the reported TGI associated with O=C(CCCN1CCC2(CC1)CC(=O)N(N1CCOCC1)C2=O)c1ccccc1
Marked response: > 100 µM

Exam item: Request the reported TGI associated with COc1cc(C2SCC(=O)N2c2ccc(NC(=O)c3ccc(N4C(=O)CSC4c4cc(OC)c(OC)c(OC)c4)cc3)cc2)cc(OC)c1OC (stereo unspecified)
Marked response: > 100 µM

Exam item: Request the reported TGI associated with Cc1ccccc1C(O)(c1nccn1C)c1nccn1C
Marked response: > 100 µM

Exam item: Request the reported TGI associated with COc1cccc(/C=C2\CCC(C)(CN(C)C)C2=O)c1 (stereo unspecified)
Marked response: > 100 µM
